TARGET_OR_TEST_SYSTEM: His6-tagged FGFR kinase domain (Homo sapiens, UniProt P11362, C488A/C584S)
Construct: FGFR kinase domain (amino acids 458-765, C488A, C584S) N-terminally fused to a His6-tag and TEV cleavage site; His6-tag plus linker and TEV cleavage site (printed as X1); made in house
Sequence (P11362 458-765 C488A/C584S): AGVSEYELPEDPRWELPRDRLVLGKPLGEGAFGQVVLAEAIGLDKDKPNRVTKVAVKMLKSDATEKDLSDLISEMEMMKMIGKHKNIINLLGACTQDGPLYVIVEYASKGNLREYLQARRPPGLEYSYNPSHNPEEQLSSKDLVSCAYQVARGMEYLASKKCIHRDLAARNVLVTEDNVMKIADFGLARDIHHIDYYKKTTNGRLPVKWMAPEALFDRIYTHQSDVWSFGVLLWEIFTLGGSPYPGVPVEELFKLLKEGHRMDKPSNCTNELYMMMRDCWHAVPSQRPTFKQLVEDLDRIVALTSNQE
TEST_PROTOCOL: FGFR Kinase assay - Elisa
Assay type: biochemical
PARTICULARS: FGFR inhibition test, Elisa; read-out: Activity class (FGFR Kinase assay - Elisa)
The entries below are paired with their reported IC50.

>  <TEST_SMILES>
CN1CCN(c2ccc(C(=O)Nc3cc(CCc4ccoc4)n[nH]3)cc2)CC1

>  <IC50>
< 300 nM

$$$$
>  <TEST_SMILES>
COc1cc(CCc2cc(NC(=O)c3ccc(CN4CCC(F)CC4)cc3)[nH]n2)cc(OC)c1

>  <IC50>
< 300 nM

$$$$
>  <TEST_SMILES>
COc1cccc(CCc2cc(NC(=O)c3ccc(OC)nc3)[nH]n2)c1

>  <IC50>
300 to 1000 nM

$$$$
>  <TEST_SMILES>
COc1cccc(CCc2cc(NC(=O)c3ccc(S(C)(=O)=O)cc3)[nH]n2)c1

>  <IC50>
< 300 nM

$$$$
